# procedureText: Stability of NTI164 oil formulation at room temperature (UPLC)
# experimentalSetup: NTI164 oil, room temperature, Day 2
# Cannabinoid content of NTI164, Day 2 per record follows

| molecule | observedResult |
| --- | --- |
| CCCCCc1cc(O)c2c(c1)OC(C)(C)[C@@H]1CCC(C)=C[C@@H]21 [Tetrahydrocannabinol (D9-THC), Delta-9-tetrahydrocannabinol] | <0.1 mg/mL |
| CCCCCc1cc(O)c2c(c1)OC(C)(C)c1ccc(C)cc1-2 [Cannabinol (CBN), Cannabinol] | 2.54 mg/mL |

Ask: Please report the measured Cannabinoid content of NTI164, Day 2 for CCCCCc1cc2c(c(O)c1C(=O)O)[C@@H]1C=C(C)CC[C@H]1C(C)(C)O2 [(Tetrahydrocannabinolic acid) (D9-THCA), Delta-9-tetrahydrocannabinolic acid]
Reply: 0.72 mg/mL

Ask: Please report the measured Cannabinoid content of NTI164, Day 2 for CCCc1cc(O)c2c(c1)OC(C)(C)[C@@H]1CCC(C)=C[C@@H]21 [Tetrahydrocannabivarin (THCV), Tetrahydrocannabivarin]
Reply: <0.1 mg/mL

Ask: Please report the measured Cannabinoid content of NTI164, Day 2 for CCCCCc1cc(O)c(C/C=C(\C)CCC=C(C)C)c(O)c1 [Cannabigerol (CBG), Cannabigerol]
Reply: 5.23 mg/mL

Ask: Please report the measured Cannabinoid content of NTI164, Day 2 for C=C(C)[C@@H]1CCC(C)=C[C@H]1c1c(O)cc(CCC)cc1O [Cannabidivarin (CBDV), Cannabidivarin]
Reply: <0.1 mg/mL

---

# procedureText: Stability of NTI164 oil formulation at room temperature (UPLC)
# experimentalSetup: NTI164 oil, room temperature, Day 28
# Cannabinoid content of NTI164, Day 28 per record follows

Field: example entries. Status: answers known.
| molecule | Cannabinoid content of NTI164, Day 28 |
| --- | --- |
| C=C(C)[C@@H]1CCC(C)=C[C@H]1c1c(O)cc(CCCCC)c(C(=O)O)c1O | 47.12 mg/mL |
| CCCCCc1cc(O)c(C/C=C(\C)CCC=C(C)C)c(O)c1 | 5.1 mg/mL |
| CCCCCc1cc(O)c2c(c1)OC(C)(CCC=C(C)C)C=C2 (stereo not shown) | 1.27 mg/mL |

Next:
Ask: Please report the measured Cannabinoid content of NTI164, Day 28 for C=C(C)[C@@H]1CCC(C)=C[C@H]1c1c(O)cc(CCCCC)cc1O
Reply: 0.54 mg/mL

---

# procedureText: Stability of NTI164 oil formulation at room temperature (UPLC)
# Cannabinoid content of NTI164, Day 14 per record follows

Ask: Please report the measured Cannabinoid content of NTI164, Day 14 for CCCCCc1cc(O)c2c(c1)OC(C)(C)C1CC=C(C)CC21 (centres unmarked) [DELTA-8-THC (D8-THC), Delta-8-tetrahydrocannabinol]
Reply: <0.1 mg/mL

Ask: Please report the measured Cannabinoid content of NTI164, Day 14 for CCCCCc1cc(O)c2c(c1)OC(C)(C)c1ccc(C)cc1-2
Reply: 2.33 mg/mL

Ask: Please report the measured Cannabinoid content of NTI164, Day 14 for C=C(C)[C@@H]1CCC(C)=C[C@H]1c1c(O)cc(CCCCC)cc1O
Reply: 0.56 mg/mL

Ask: Please report the measured Cannabinoid content of NTI164, Day 14 for CCCc1cc(O)c2c(c1)OC(C)(C)[C@@H]1CCC(C)=C[C@@H]21 [Tetrahydrocannabivarin (THCV), Tetrahydrocannabivarin]
Reply: <0.1 mg/mL

Ask: Please report the measured Cannabinoid content of NTI164, Day 14 for CCCCCc1cc2c(c(O)c1C(=O)O)[C@@H]1C=C(C)CC[C@H]1C(C)(C)O2 [(Tetrahydrocannabinolic acid) (D9-THCA), Delta-9-tetrahydrocannabinolic acid]
Reply: 0.69 mg/mL
